The reported numbers originate from patent US8063093B2.

Documented melting point across a set of compounds

// known answers, use as guide
- STRUCTURE_SMILES_STRING: "COc1c(O)c(C(C)=O)c(OCc2ccc(F)cc2)c2ccoc12"
  melting point: "100 to 102 °C"
- STRUCTURE_SMILES_STRING: "COc1c(O)c(C(C)=O)c(OCc2cccc(Cl)c2)c2ccoc12"
  melting point: "108 to 111 °C"
- STRUCTURE_SMILES_STRING: "COc1c(C(C)=O)c(O)c(OCc2ccc3ccccc3c2)c2occc12"
  melting point: "114 to 115 °C"
- STRUCTURE_SMILES_STRING: "COc1c(C(C)=O)c(O)c(OCCCc2ccccc2)c2occc12"
  melting point: "36 °C"

API: the following record is the query input.
Sample `COc1c(O)c(C(C)=O)c(OCc2ccc(C(F)(F)F)cc2)c2ccoc12` ; melting point observed: 104 to 106 °C
